Assay: Blood biochemical analysis and HE staining of tissues in HCT116 tumor-bearing nude mice
Type: in vivo
Conditions: tail vein once every two days, 12 times, blood 48 hours after the last treatment
Measurement Name: Aspartate aminotransferase

{"Molecule": "Nc1nc2c(ncn2[C@H]2C[C@H](O)[C@@H](CO)O2)c(=S)[nH]1 [Compound 6-thio-dG, 6-thio-2′-deoxyguanosine, reference compound]", "Result": "172.4 U/L"}
{"Molecule": "Nc1nc(SSCc2ccc(F)cc2)c2ncn(C3C[C@H](O)[C@@H](CO)O3)c2n1 (stereo partly drawn) [B]", "Result": "254.4 U/L"}
{"Molecule": "CC(C)(C)SSc1nc(N)nc2c1ncn2C1C[C@H](O)[C@@H](CO)O1 (stereo partly drawn) [Compound C, 6-(tert-butyldithio)-2′-deoxyguanosine]", "Result": "128.3 U/L"}

These measurements were taken from patent US11247994B2.
